Experiment: qHTS assay to test for compound auto fluorescence at 460 nm (blue) in HEK293 cells (AID 720678)
Details: blue autofluorescence 405/460 nm; series mostly up to 91.3 µM
From the text: National Center for Advancing Translational Sciences [NCATS] NIH Chemical Genomics Center [NCGC] U.S. Environmental Protection Agency [EPA] National Institutes of Environmental Health Sciences [NIEHS] National Toxicology Program [NTP] U.S. Food and Drug Administration [FDA] Compound auto fluorescence often interferes with screening of the compound library against various biological targets and signaling pathways. Some of these compounds may have fluorophoric properties. […]
Calls of active or inactive are those of the source. The call rests on the fitted dose curve; in most records, active means well fitted curve in the direction sought with a large enough effect in the repeat runs; inconclusive means weak or mixed curves; inactive means flat fitted curve, though single readings scatter.
propertyMeasured: fluorescence, % of triamterene

Before answering, review these 5 worked examples.
CCCCCCC(O)CCOC(C)=O (stereo not drawn)	inactive
O=C(CCS)OCC(COC(=O)CCS)(COC(=O)CCS)COC(=O)CCS	inactive
CCOC(=O)C(C)O (stereo not drawn)	inactive
CC(C)N(C)C	inactive
CSCC[C@H](NC(=O)[C@H](Cc1c[nH]c2ccccc12)NC(=O)CCNC(=O)OC(C)(C)C)C(=O)N[C@@H](CC(=O)O)C(=O)N[C@@H](Cc1ccccc1)C(N)=O	inactive

What measured fluorescence, % of triamterene goes with BrC(Br)C(Br)Br ?
inactive

What measured fluorescence, % of triamterene goes with CC(CN(CCN(CC(C)OCCO)CC(C)OCCO)CC(C)OCCO)OCCO (stereo not drawn) ?
inactive

---

Test: qHTS assay for identifying genotoxic compounds that show differential cytotoxicity against isogenic chicken DT40 cell lines with known DNA damage response pathways - Rad54/Ku70 mutant cell line (AID 743015); further: nearly all actives have a fitted effect of over 60% in size
Settings: DT40 Rad54/Ku70 mutant viability, CellTiter-Glo, 40 h; series mostly up to 66.8 µM
Records with an inconclusive call do not appear. The source made the active and inactive calls. Calls follow the shape of the dose curve; as a rule, active = well fitted cell-killing curve with a large enough effect in the repeat runs; inconclusive = weak or mixed curves; inactive = no such curve, though single readings can be large or run the other way.
Hi there, use one of these labels in your reply, thanks! active, inactive

Which outcome was entered for the compound CSSc1ccoc1C in this test?
active

Which outcome was entered for the compound O=NN(CCCl)C(=O)NCCCl in this test?
inactive

Which outcome was entered for the compound C=C(C)C(=O)OCCC(F)(F)C(F)(F)C(F)(F)C(F)(F)C(F)(F)C(F)(F)F in this test?
inactive

Which outcome was entered for the compound [Cl][Nd]([Cl])[Cl] in this test?
inactive

Which outcome was entered for the compound CC(=O)OCC1=C(C(=O)O)N2C(=O)[C@@H](NC(=O)CSc3ccncc3)[C@H]2SC1 in this test?
inactive

Which outcome was entered for the compound CCCc1nc2c(C)cc(-c3nc4ccccc4n3C)cc2n1Cc1ccc(-c2ccccc2C(=O)O)cc1 in this test?
inactive

---

Test: qHTS assay to identify small molecule agonists of the estrogen receptor alpha (ER-alpha) signaling pathway in the presence of an antagonist - cell viability counter screen (AID 1259386);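 further: cells exposed to compounds for 22 h at 37 °C before the viability read; nearly all actives have a fitted effect of over 30% in size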
Conditions: VM7Luc4E2 viability, CellTiter-Fluor fluorescence, 22 h; series mostly up to 92.4 µM
Inconclusive results are not listed. The source made the active and inactive calls. Calls follow the shape of the dose curve; as a rule, active = well fitted cell-killing curve with a large enough effect in the repeat runs; inconclusive = weak or mixed curves, or effect the other way; inactive = no such curve, though single readings can be large or run the other way.
Hi there, use one of these labels in your reply, thanks! t for active, f for inactive

Which outcome was entered for the molecule O=C(O)c1cccc(C[C@@H]2COc3ccc(OCc4nc5cc(F)ccc5s4)cc3[C@@H]2O)c1 in this test?
f

Which outcome was entered for the molecule Nc1c(Cl)cc(Cl)cc1[N+](=O)[O-] in this test?
f

Which outcome was entered for the molecule Nc1ccc(NC(=O)c2ccc(N)cc2)cc1 in this test?
f

Which outcome was entered for the molecule CCC(C)(C)C(=O)O in this test?
f

Which outcome was entered for the molecule Cc1ccccc1S(N)(=O)=O in this test?
f

Which outcome was entered for the molecule Nc1ccc(N=Nc2ccc(N)cc2)cc1 in this test?
t

Which outcome was entered for the molecule CCCCCCOC(=O)CCCCC in this test?
f

Which outcome was entered for the molecule CCN(CC)CCNC(=O)c1cc(Cl)c(N)cc1OC in this test?
f

Which outcome was entered for the molecule Nc1cccc2c(N)cccc12 in this test?
t

Which outcome was entered for the molecule COc1cc(S(=O)(=O)Nc2ccccc2)c(OC)cc1N in this test?
f

Which outcome was entered for the molecule CCCCCCCCCCCCCCCC(=O)OCC in this test?
f

Which outcome was entered for the molecule CCc1ccc(C)cc1 in this test?
f

Which outcome was entered for the molecule O=C(O)CNC(=O)c1ccccc1I in this test?
f

Which outcome was entered for the molecule O=S(=O)(O)CO in this test?
f

Which outcome was entered for the molecule CC(=O)c1ccc[nH]1 in this test?
f
